Tested on: SigW (ECF sigma factor, GST fusion) (Pseudomonas donghuensis HYS), ORF:b11b1795
Sequence: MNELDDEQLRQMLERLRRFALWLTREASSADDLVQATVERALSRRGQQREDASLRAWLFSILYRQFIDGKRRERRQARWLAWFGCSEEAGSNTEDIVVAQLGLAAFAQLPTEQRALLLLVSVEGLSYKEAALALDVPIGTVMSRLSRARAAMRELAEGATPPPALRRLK
Test Details: EMSA
Run Parameters: EMSA: 0.3 uM DNA in 20 uL, 10 mM Tris-HCl pH 7.5, 150 mM NaCl, 2 mM DTT, 2 mM EDTA, 10% glycerol, 30 C 40 min; 6.8% native PAGE in 0.5x TBE on ice, EB stain
Value Type: binding

GCCCGCGTATTTCCTGAGCTCAACCTGAGCAATCACGCAGCGCCGCACTCGGTTATTTGAATGCGAGTAGCCATAGCACGGCAACTTGCCTAGGATAAGAAACAAATTGAAACGTTGTTAAAAGTGACAACTACCCGCTCAACGATGTTTCAACTTTCTTGCAATCTTCAGCCCCACAAATCAATAAAAGGACGTTCACGATGAGCAACAAGGGTTTTGACACCG (double strand) [orf9-orf6 promoter] = binds
